Entry source: the Human Domainome abundance scans (Beltran et al. 2025)

B1: Protein S100-G, residues 1 to 79; numbered along this chain, P02633 (parent)
chain: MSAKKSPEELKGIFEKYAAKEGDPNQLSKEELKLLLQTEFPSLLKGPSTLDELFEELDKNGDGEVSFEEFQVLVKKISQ

- Variants of: B1
- test.details: abundance fitness (aPCA) (normalised: wild type 0, dead -1); higher = more abundant; growth selection in yeast, the domain comes from the species named
- details: Bos taurus
Class 1.0: abundance fitness at least -0.08. Class 0.0: abundance fitness below -0.08.

Reference set (5 entries):
L34H    1.0
E52S    1.0
L10C    0.0
D58I    1.0
D62A    1.0

Determine whether measured abundance fitness meets or exceeds -0.08 for "L34F"
1.0

Say whether "A3L" shows abundance fitness of -0.08 or more.
1.0

Reported abundance fitness at or above -0.08? "E9M"
1.0

Say whether "E64Y" shows abundance fitness of -0.08 or more.
1.0

Identify whether the reported abundance fitness of the following variant is -0.08 or greater: "P47D"
1.0

Decide: abundance fitness of "K20V" >= -0.08?
1.0

Please tell me: is the variant "K5N" at or over -0.08 in terms of abundance fitness?
1.0

Check the entry "F67T" : does abundance fitness equal or exceed -0.08?
0.0
